# Target System: T1, cyno CD46 expressed on 293 cells (cynomolgus)
# T1 construct: whole, on cells; The construct on the cells is not described; also called HEK 293 cells expressing cyno CD46
# Assay Comment: FACS, 293 cells expressing cyno CD46, pH 7.4
Metric Name: EC50 (µg/mL)
Give the number; µg/mL is assumed, so skip it.

Binder	EC50 (µg/mL)
BA-133-04-02 (antibody, V domains shown, also called CPE hit BA133-04-02) VH: EVQLVESGGGLVQPGGSLRLSCAASGGSVSSYDISWIRQSPSRGLEWLGVIWTDGGTNYNSAFMSRFTISRDDSKNTAYLQMNSLKTEDTAVYYCERVYDGYPWFAYWGQGTLVTVSS VL: AIQLTQSPSSLSASVGDRVTITCRASQGIANYLNWYLQKPGQSPQLLIYYTSSLHSGVPDRFSGSGSGTDFTLKISRVEAEDVGVYYCQQYIKLPWTFGQGTKVEIK	1.37
BA-133-04-03 (antibody, V domains shown, also called CPE hit BA133-04-03) VH: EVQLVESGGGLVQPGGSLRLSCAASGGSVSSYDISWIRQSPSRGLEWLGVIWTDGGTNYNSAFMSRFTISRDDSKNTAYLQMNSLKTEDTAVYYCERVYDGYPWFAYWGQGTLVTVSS VL: AIQLTQSPSSLSASVGDRVTITCRASQGISNYLNWYLQKPGQSPQLLIYYTSSLFSGVPDRFSGSGSGTDFTLKISRVEAEDVGVYYCQQYIKLPWTFGQGTKVEIK	0.33
BAP133-2-03-03-SL (antibody, V domains shown, the killing assays used the ADC form; also called BAP133-02-03-03-SL; CPE hit BAP133-2-03-03-SL) VH: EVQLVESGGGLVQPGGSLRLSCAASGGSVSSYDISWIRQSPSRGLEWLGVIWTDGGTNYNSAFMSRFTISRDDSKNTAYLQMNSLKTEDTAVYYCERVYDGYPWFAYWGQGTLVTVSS VL: AIQLTQSPSSLSASVGDRVTITCRASQGISNYLNWYLQKPGQSPQLLIYYTSSLHSGVPDRFSGSGSGTDFTLKISRVEAEDVGVYYCQQYIKLPWTFGQGTKVEIK	1.15

Read the next record carefully.
Ask | Identify the reported EC50 for the following entry. BA-133-04-01 (antibody, V domains shown, also called CPE hit BA133-04-01) VH: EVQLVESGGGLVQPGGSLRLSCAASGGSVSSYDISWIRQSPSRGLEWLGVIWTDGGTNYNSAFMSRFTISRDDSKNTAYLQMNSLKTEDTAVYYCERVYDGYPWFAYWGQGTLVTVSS VL: AIQLTQSPSSLSASVGDRVTITCRASQWISNYLNWYLQKPGQSPQLLIYYTSSLHSGVPDRFSGSGSGTDFTLKISRVEAEDVGVYYCQQYIKLPWTFGQGTKVEIK
Reply | 0.958
